Target: T1, full-length untagged human GPNMB expressed on cells (human, UniProt Q14956 23-572)
T1 sequence: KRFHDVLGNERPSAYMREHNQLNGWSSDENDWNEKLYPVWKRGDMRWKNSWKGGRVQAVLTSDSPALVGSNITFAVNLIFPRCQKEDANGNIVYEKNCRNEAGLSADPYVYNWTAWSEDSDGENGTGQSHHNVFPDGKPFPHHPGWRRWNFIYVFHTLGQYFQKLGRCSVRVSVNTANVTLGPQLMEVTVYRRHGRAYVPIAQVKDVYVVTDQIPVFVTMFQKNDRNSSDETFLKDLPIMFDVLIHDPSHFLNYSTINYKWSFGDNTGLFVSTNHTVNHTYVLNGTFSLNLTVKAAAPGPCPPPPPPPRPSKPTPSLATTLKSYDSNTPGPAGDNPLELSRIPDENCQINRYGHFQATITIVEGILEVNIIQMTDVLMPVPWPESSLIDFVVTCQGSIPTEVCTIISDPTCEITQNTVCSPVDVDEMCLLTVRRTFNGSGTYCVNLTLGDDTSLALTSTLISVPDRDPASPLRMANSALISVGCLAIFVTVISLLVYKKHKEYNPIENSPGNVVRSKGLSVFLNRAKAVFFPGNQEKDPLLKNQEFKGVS
Experiment: cell-based or functional assay

- Binder: "anti-GPNMB antibody GPN-86 (antibody, V domains shown) VH: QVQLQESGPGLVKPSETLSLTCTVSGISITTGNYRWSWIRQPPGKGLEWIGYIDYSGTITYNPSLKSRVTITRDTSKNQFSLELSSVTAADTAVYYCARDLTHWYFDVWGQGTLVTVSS VL: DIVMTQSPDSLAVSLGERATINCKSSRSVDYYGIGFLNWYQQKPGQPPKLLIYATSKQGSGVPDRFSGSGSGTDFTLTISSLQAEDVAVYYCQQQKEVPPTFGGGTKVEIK"
  EC50 GCase, nM: 0.166
- Binder: "anti-GPNMB antibody GPN-92 (antibody, V domains shown, humanized GPN-08) VH: QVQLVQSGAEVKKPGASVKVSCKASGYTFTSYWMHWVRQAPGQGLEWMGEINPSDGRTNYAQKFQGRVTMTVDKSTSTVYMELSSLRSEDTAVYYCARSGGNYAWFAYWGQGTLVTVSS VL: DIVMTQSPDSLAVSLGERATINCKASQDVSPSLAWYQQKPGQPPKLLIYSASYRYTGVPDRFSGSGSGTDFTLTISSLQAEDVAVYYCQQHYSIPLTFGGGTKVEIK"
  EC50 GCase, nM: 0.27
- Binder: "anti-GPNMB antibody GPN-82 (antibody, V domains shown) VH: QVQLQESGPGLVKPSETLSLTCTVSGISITTGNYRWSWIRQPPGKGLEWIGYIYYSGTIIYNPSLKSRVTITRDTSKNQFSLELSSVTAADTAVYYCARDLTHWYFDVWGQGTLVTVSS VL: DIVMTQSPDSLAVSLGERATINCKSSRSVDYYGIGFLNWYQQKPGQPPKLLIYATSTQGSGVPDRFSGSGSGTDFTLTISSLQAEDVAVYYCQQQKEVPPTFGGGTKVEIK"
  EC50 GCase, nM: 0.365
- Binder: "anti-GPNMB antibody GPN-83 (antibody, V domains shown) VH: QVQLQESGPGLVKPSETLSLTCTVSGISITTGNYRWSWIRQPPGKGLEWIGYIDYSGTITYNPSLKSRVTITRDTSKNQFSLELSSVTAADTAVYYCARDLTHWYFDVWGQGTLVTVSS VL: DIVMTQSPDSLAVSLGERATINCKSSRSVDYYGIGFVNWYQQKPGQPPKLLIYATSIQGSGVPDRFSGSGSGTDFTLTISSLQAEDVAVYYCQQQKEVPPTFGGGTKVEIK"
  EC50 GCase, nM: 0.834
